Assay: Stability in 20% w/v rat liver homogenate
Assay type: in vitro ADME
Conditions: rat, 20% w/v rat liver homogenate; 37°C, 2 h; read-out: Percent remaining after 2 h incubation in rat liver homogenate
Rule for this label: Satisfied means remaining at 2 h, 50 nM is less than 70%; Not satisfied means remaining at 2 h, 50 nM is at least 70%.

Compound: CCCCCCCCCCCCCCCC(=O)NCCOC(=O)[C@@H](N)CC(=O)O.Cl
Category label: Satisfied

Compound: CCCCCCCCCCCCCCCC(=O)NCCOC(=O)N[C@H](C(=O)O)C(C)C
Category label: Not satisfied

Compound: CCCCCCCCCCCCCCCC(=O)NCCOC(=O)[C@H](N)C(C)C.Cl
Category label: Satisfied

Compound: CCCCCCCCCCCCCCCC(=O)NCCOC(=O)[C@@H](N)[C@@H](C)CC.Cl
Category label: Satisfied

Compound: CCCCCCCCCCCCCCCC(=O)N[C@H](C)CO [compound 31, (R)-α-methyl-PEA]
Category label: Not satisfied
